Property label: melting point

Example entries begin here.
- O=C1C(=Cc2ccc(Br)cc2)CCc2cc(OCCn3ccnc3)ccc21: 152 to 153 °C
- CC(C)(C)OC(=O)CN1CCC(CNC(=O)N2CCN(C3CCN(C(=O)OC(C)(C)C)CC3)CC2)CC1: 131 to 133 °C
- CC(C)CC(NC(c1ccc(-c2ccc(S(C)(=O)=O)cc2)cc1)C(F)(F)F)C(=O)NCC#N (stereo not given): 140 °C
- COc1ccc(-c2cc(CCC(=O)O)sc2-c2ccc(OC)cc2)cc1: 96 °C
- Cc1cc(I)cc(C=CC#N)c1: 98 °C

Prompt: If you can, please state the reported melting point value of O=c1nc(-c2ccccc2)c2cc([N+](=O)[O-])ccc2n1Cc1cccs1 .
Response: 219 to 220 °C

Prompt: What do you get for CCc1[nH]n(C2CCCC2)c2nc(-c3ccc(-n4ccnc4)cc3)nc(=O)c1-2 ?
Response: > 300 °C

Prompt: What do you get for CC(=O)CC(=O)c1ccc(OCCCN2CCCCC2)cc1 ?
Response: 43 to 45.5 °C

Prompt: What do you get for CN1CNC(=S)N(c2ccc([N+](=O)[O-])cc2)C1 ?
Response: 170 to 172 °C

Prompt: What do you get for CN(C)C(=O)NCC1(C)OCCc2c1[nH]c1ccccc21 (stereo not given) ?
Response: 153 to 155 °C

###

Property label: melting point

Example entries begin here.
* CCOC(=O)Cn1c2c(c3c(Cl)ccc(Cl)c31)CCN(C(=O)OC(C)(C)C)CC2 | 118 to 120 °C
* CC(C)(C)n1nnc(-c2ccc(CNc3n[nH]c4ncnc(Nc5cccc(Cl)c5)c34)cc2)n1 | 168 to 170 °C

Now look at this one.
Prompt: If you can, please state the reported melting point value of Nc1nc(NC2CC2)c2ncn(/C=C3/CC3(CO)CO)c2n1 .
Response: 164 to 165 °C

###

List of melting point values.

Example entries begin here.
• COc1ccc(OC)c2c1CCOC2CCl (configuration not stated) = 101 to 102 °C
• COCc1cc(Cl)c2cccc(OC)c2n1 = 67 to 69 °C
• COC(=O)C(Cc1ccc(O)cc1)NC(=O)C(Cc1ccccc1)NC(=O)c1ccc(OC)cc1 (configuration not stated) = 195 to 197 °C
• O=S(=O)(CCl)c1ccc(O)c(Br)c1 = 158 to 160 °C
• COc1cc(-c2ccc(C=O)cc2)nc(C)n1 = 114 to 115 °C
• Cc1cc(=O)c(C(=O)Nc2ccccc2Cl)c(C)o1 = 206 to 207 °C

Prompt: If you can, please state the reported melting point value of Cn1c2ccccc2c(=O)n2nc(C#N)cc12 .
Response: 307 to 310 °C

Prompt: What do you get for O=C(O)CCCOc1ccc(CNC(=O)C2Cc3ccccc3N2S(=O)(=O)c2ccc(-c3cccc(C(F)(F)F)c3)cc2)cc1 (configuration not stated) ?
Response: 78 to 80 °C

Prompt: What do you get for O=C1c2ccccc2S(=O)(=O)N1CCCCBr ?
Response: 72 °C

Prompt: What do you get for COc1ccc(-n2nc(-c3ccc(C)cc3)c(C(N)=O)c2N)cc1 ?
Response: 174 to 175 °C

Prompt: What do you get for CCOC(=O)CC(=O)c1ccc(CCNC(C)=O)cc1 ?
Response: 89 to 92 °C

Prompt: What do you get for NS(=O)(=O)Oc1c(Cl)cccc1Cl ?
Response: 108 to 110 °C

Prompt: What do you get for Cc1oc2c(C)c(C)c(NC(=O)c3ccc(F)cc3)c(C)c2c1-c1ccc(C(C)C)cc1 ?
Response: 242 to 245 °C

Prompt: What do you get for Cn1nc(S(=O)(=O)c2ccccc2)c2cc(N3CCN(Cc4ccccc4)CC3)ccc21 ?
Response: 195 to 197 °C

Prompt: What do you get for O=C(c1ccc2[nH]ccc2c1)N1CCN(CCc2ccc([N+](=O)[O-])cc2)CC1 ?
Response: 204 to 206 °C

Prompt: What do you get for COC(=O)CCc1ccc2c(c1)nc(N)c1ncn(CC(C)(C)O)c12 ?
Response: 201 to 205 °C

Prompt: What do you get for O=C1Nc2cccc(-c3cccc(NC(=O)c4ccc(O)cc4)c3)c2/C1=C/c1ccc[nH]1 ?
Response: 236 to 238 °C

###

List of melting point values.

* Nc1cc(C(c2cc(F)ccc2F)S(=O)(=O)c2ccc(Cl)cc2)c(Cl)cn1 (stereo unspecified) | 147 to 150 °C
* COc1ccc(NC(=O)c2ccc(Cl)c(Cl)c2)cc1Nc1cccc(C(F)(F)F)c1 | 151 to 152 °C
* CCOP(=O)(OCC)Oc1c(Br)c(C)nc(C)c1-c1ccc(Oc2ccc(OC(F)(F)F)cc2)cc1 | 80 to 81 °C
* Cc1nnc(NCCCC(C)N2CCNCC2)c2cc3ccccn3c12 (stereo unspecified) | 110 to 111 °C

Prompt: If you can, please state the reported melting point value of Cc1ccc(C)n1-c1ccccc1OCC(O)CNC(C)C (stereo unspecified) .
Response: 73 to 75 °C

Prompt: What do you get for CCC(=O)CNC(=O)CSc1cnc(NC(C)=O)s1 ?
Response: 195 to 196 °C

Prompt: What do you get for COc1cc([N+](=O)[O-])ccc1-c1cnn(C)c1 ?
Response: 132 to 134 °C

###

List of melting point values.

- CS(=O)(=O)OCC(C(=O)N1CCC(=C2c3ccc(Cl)cc3CCc3cccnc32)CC1)c1ccccc1 (stereo not drawn): 111 to 112 °C
- CCN1C(=O)C(C)(C)C(=O)N(C)c2cc(OCCCn3c(-c4ccccc4)cc4ccccc43)ccc21: 140 to 142 °C
- CC(=C(c1ccc(F)cc1)c1ccc(F)cc1)c1nnnn1C: 146 to 147 °C
- CCN1CCN(c2nc(-c3ccc(OCCO)cc3)cc3ccsc23)CC1: 135 to 136 °C
- COC(=O)C1=C(C)NC(C)=C(P(=O)(OC(C)C)OC(C)C)C1c1cccc([N+](=O)[O-])c1 (stereo not drawn): 205 to 207 °C

Prompt: If you can, please state the reported melting point value of O=C(O)CN(CCc1ccccc1)C(=O)[C@@H]1C[C@@H](S)CN1S(=O)(=O)c1ccc2ccccc2c1 .
Response: 198 to 200 °C

Prompt: What do you get for COc1cccc([C@H]2O[C@H](CC(=O)Nc3ccc4[nH]c(C(=O)O)cc4c3)C(=O)N(CC(C)(C)CO)c3ccc(Cl)cc32)c1OC ?
Response: 200 to 201 °C

Prompt: What do you get for COc1cc(NC(=O)CC23CC4CC(CC(C4)C2)C3)c(C)c(OC)c1 ?
Response: 201 to 203 °C

###

List of melting point values.

Example entries begin here.
• CCn1nccc1NC(=O)c1ccc(OC)c2oc(COC)cc12 = 97 to 99 °C
• O=C1NC(=O)c2c1c(-c1ccccc1Cl)cc1c2c(Br)c(CO)n1CCCO = 203 to 205 °C
• CC(C)(C)OC(=O)CCc1ccc(-c2nc(=O)c3ccccc3s2)nc1C#N = 196 to 197 °C
• CCCCCCCCCCCCCCCCCCOc1cc(OCCOCCOCCOCC)cc(C(=O)O)c1 = 38 to 40 °C

Now look at this one.
Prompt: If you can, please state the reported melting point value of CC(=O)N(C)Cc1ccc(C(=O)Cn2cnc3cc(-c4ccc(Cl)cc4)sc3c2=O)cc1 .
Response: 250 to 251 °C

###

List of melting point values.

Example entries begin here.
• C[Si](C)(C)CCCOc1ccc(O)c(C(=O)O)c1 = 115 to 116 °C
• COc1ccc(C=C2SC(=O)NC2=O)cc1C(=O)NCc1ccc(C(F)(F)F)cc1 = 210 to 212 °C
• CCOC(=O)c1cn(NCC=O)c2c(F)c(F)c(F)cc2c1=O = 185 °C
• CN1Cc2ccc(COc3cccc4c3CN(C3CCC(=O)NC3=O)C4=O)cc2C1 (stereo not given) = 262 to 264 °C

Now look at this one.
Prompt: If you can, please state the reported melting point value of COc1ccc2c(c1)CCC1C2=CCC2(C)C(O)CCC12 (stereo not given) .
Response: 95 to 97 °C

###

Property label: melting point

* CC(C)(C)OC(=O)N1CCC(NCc2ccccc2N)CC1 | 79 to 81 °C

Prompt: If you can, please state the reported melting point value of CCCCCCCCCCCCCCCCSCC(CNS(=O)(=O)CCCCl)COC (stereo unspecified) .
Response: 41.5 to 43 °C

Prompt: What do you get for CCOC(=O)c1c2ccc(Cl)cc2c(-c2ccccc2)n1C ?
Response: 94 to 96 °C

Prompt: What do you get for CN(Cc1ccccc1)C1(CNC(=O)c2ccc(Cl)c(Cl)c2)CCCCC1 ?
Response: 139 to 145 °C

Prompt: What do you get for O=C(CCc1cnoc1-c1ccccc1)Nc1nc(-c2ccc(Cl)cc2)cs1 ?
Response: 172 to 173 °C

Prompt: What do you get for CCOC(=O)Cn1nc2ccc(OCCCN3CCC(OC(c4ccccc4)c4ccccc4)CC3)nn2c1=O ?
Response: 124 to 125 °C

Prompt: What do you get for CCOC(=O)NC1CCN(Cc2ccccc2)CC1 ?
Response: 100 °C

Prompt: What do you get for CNC(=O)CCCCCN(C)S(=O)(=O)c1ccc(Cl)c(COc2cccc3ccc(C)nc23)c1Cl ?
Response: 110 to 112 °C

Prompt: What do you get for COc1cc2nc(C)c3c4cc5c(cc4ccc3c2cc1OC)OCO5 ?
Response: > 250 °C

Prompt: What do you get for CN1c2ccccc2-n2cc(Cc3cccnc3)c(=O)c3cccc1c32 ?
Response: 96.8 to 97.6 °C

Prompt: What do you get for COC(=O)Cc1cc(N=O)c2[nH]ccc2c1 ?
Response: 110 to 111 °C

Prompt: What do you get for CCOC(=O)CN1CCC2(CC1)CC(c1ccc(C#N)cc1)=NO2 ?
Response: 116 to 118 °C

Prompt: What do you get for O=S(=O)(CC(Br)(CBr)c1cccc(Cl)n1)C1CC1 (stereo unspecified) ?
Response: 75 °C

Prompt: What do you get for CCOP(=O)(OCC)c1cc2cc(S(N)(=O)=O)c(Cl)cc2[nH]c1=O ?
Response: 288 to 290 °C

Prompt: What do you get for CC(C)(CCCCCCCC(=O)CCCCCCCC(C)(C)C(=O)O)C(=O)O ?
Response: 74 to 77 °C

Prompt: What do you get for CC(C)OC(=O)C1=C(COCCN2C(=O)c3ccccc3C2=O)Nc2c(C#N)cnn2C1c1cccc(F)c1F (stereo unspecified) ?
Response: 176 to 177 °C

Prompt: What do you get for COc1ccc(OC)c2[nH]c(-c3ccc(Cl)cc3)nc12 ?
Response: 274 to 276 °C

Prompt: What do you get for CC(C)(C)OC(=O)N[C@H]1CCC(=O)C1 ?
Response: 97 to 98 °C
